# Tested on: hTERT-HMEC
# assayNotes: percentage of EdU-negative (G0-arrested) nuclei per well, 72 h; higher = more G0 arrest
# assayConditions: protein concentration 0.0225 µM; reference: sequence is the full UniProt precursor, the tested protein was the secreted form or ectodomain
# Lookup of reported percentage of EdU-negative keyed by entry
metric: percentage of EdU-negative (%)

INSERT INTO assay_data (sequencerecord, assayedsystem, measured) VALUES
  ('MRGTPGDADGGGRAVYQSMCKPITGTINDLNQQVWTLQGQNLVAVPRSDSVTPVTVAVITCKYPEALEQGRGDPIYLGIQNPEMCLYCEKVGEQPTLQLKEQKIMDLYGQPEPVKPFLFYRAKTGRTSTLESVAFPDWFIASSKRDQPIILTSELGKSYNTAFELNIND [Q9NZH8]', 'hTERT-HMEC', 4.85),
  ('MASLRVERAGGPRLPRTRVGRPAALRLLLLLGAVLNPHEALAQPLPTTGTPGSEGGTVKNYETAVQFCWNHYKDQMDPIEKDWCDWAMISRPYSTLRDCLEHFAELFDLGFPNPLAERIIFETHQIHFANCSLVQPTFSDPPEDVLLAMIIAPICLIPFLITLVVWRSKDSEAQA', 'hTERT-HMEC', 4.96),
  ('MRMLLALLALSAARPSASAESHWCYEVQAESSNYPCLVPVKWGGNCQKDRQSPINIVTTKAKVDKKLGRFFFSGYDKKQTWTVQNNGHSVMMLLENKASISGGGLPAPYQAKQLHLHWSDLPYKGSEHSLDGEHFAMEMHIVHEKEKGTSRNVKEAQDPEDEIAVLAFLVEAGTQVNEGFQPLVEALSNIPKPEMSTTMAESSLLDLLPKEEKLRHYFRYLGSLTTPTCDEKVVWTVFREPIQLHREQILAFSQKLYYDKEQTVSMKDNVRPLQQLGQRTVIKSGAPGRPLPWALPALLGPMLACLLAGFLR', 'hTERT-HMEC', 5.11);

----------
Catalogue of percentage of EdU-negative readings, one per entry.
# Tested on: hTERT-HMEC;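 note: secreted proteins added to cultured cells, EdU pulse at the end, nuclei found by Hoechst imaging, EdU status from nuclear versus surrounding ring intensity ratio, PBS as neutral control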
# assayNotes: percentage of EdU-negative (G0-arrested) nuclei per well, 72 h; higher = more G0 arrest
# assayConditions: protein concentration 0.0225 µM; reference: sequence is the full UniProt precursor, the tested protein was the secreted form or ectodomain
metric: percentage of EdU-negative (%)

INSERT INTO measurements (sequencerecord, measured) VALUES
  ('MMQKLLKCSRLVLALALILVLESSVQGYPTRRARYQWVRCNPDSNSANCLEEKGPMFELLPGESNKIPRLRTDLFPKTRIQDLNRIFPLSEDYSGSGFGSGSGSGSGSGSGFLTEMEQDYQLVDESDAFHDNLRSLDRNLPSDSQDLGQHGLEEDFML', 5.29),
  ('MLLAWVQAFLVSNMLLAEAYGSGGCFWDNGHLYREDQTSPAPGLRCLNWLDAQSGLASAPVSGAGNHSYCRNPDEDPRGPWCYVSGEAGVPEKRPCEDLRCPETTSQALPAFTTEIQEASEGPGADEVQVFAPANALPARSEAAAVQPVIGISQRVRMNSKEKKDLGTLGYVLGITMMVIIIAIGAGIILGYSYKRGKDLKEQHDQKVCEREMQRITLPLSAFTNPTCEIVDEKTVVVHTSQTPVDPQEGTTPLMGQAGTPGA [Q96FE7]', 4.79),
  ('MDPQCTMGLSNILFVMAFLLSGAAPLKIQAYFNETADLPCQFANSQNQSLSELVVFWQDQENLVLNEVYLGKEKFDSVHSKYMGRTSFDSDSWTLRLHNLQIKDKGLYQCIIHHKKPTGMIRIHQMNSELSVLANFSQPEIVPISNITENVYINLTCSSIHGYPEPKKMSVLLRTKNSTIEYDGVMQKSQDNVTELYDVSISLSVSFPDVTSNMTIFCILETDKTRLLSSPFSIELEDPQPPPDHIPWITAVLPTVIICVMVFCLILWKWKKKKRPRNSYKCGTNTMEREESEQTKKREKIHIPERSDEAQRVFKSSKTSSCDKSDTCF', 4.6),
  ('MLLLLTLALLGGPTWAGKMYGPGGGKYFSTTEDYDHEITGLRVSVGLLLVKSVQVKLGDSWDVKLGALGGNTQEVTLQPGEYITKVFVAFQAFLRGMVMYTSKDRYFYFGKLDGQISSAYPSQEGQVLVGIYGQYQLLGIKSIGFEWNYPLEEPTTEPPVNLTYSANSPVGR [Q96DA0]', 5.62);

Data origin, for the record: the supplement of paper PMC11316812
